# Test system: type II 5α-reductase [II型5α-还原酶]
# run_description: Spectrophotometric (NADPH, 340 nm) 5α-reductase inhibition
# Type: biochemical
# test_parameters: NADPH consumption, 10 min, 37 °C, serial concentrations; average
readout_name: mean inhibition rate

Solved cases (3 shown):
COc1cc2c(cc1OC)[C@@H](Cc1ccc(O)c(Oc3cc4c(cc3OC)CCN(C)[C@@H]4Cc3ccc(O)cc3)c1)N(C)CC2    71.43%
COc1ccc(C[C@@H]2c3cc(Oc4cc(C[C@@H]5c6cc(OC)c(OC)cc6CCN5C)ccc4O)c(OC)cc3CCN2C)cc1    68.22%
CC(C)(C)NC(=O)[C@H]1CC[C@H]2[C@@H]3CC[C@H]4NC(=O)C=C[C@]4(C)[C@H]3CC[C@]12C [非那雄胺, reference compound]    57.14%

Please look at the following compound next.
Query for type II 5α-reductase [II型5α-还原酶]: what mean inhibition rate does the record show for `COc1ccc(C[C@@H]2c3cc(Oc4cc(C[C@@H]5c6cc(O)c(OC)cc6CCN5C)ccc4O)c(OC)cc3CCN2C)cc1` ?
65.48%
